pIC50 reference
testTarget: Myeloperoxidase (Homo sapiens, UniProt P05164)
Sequence (P05164 165-273 limits assumed): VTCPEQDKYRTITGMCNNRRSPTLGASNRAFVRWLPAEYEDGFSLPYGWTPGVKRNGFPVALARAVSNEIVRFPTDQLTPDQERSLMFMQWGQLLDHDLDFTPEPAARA
Sequence (P05164 279-745 limits assumed): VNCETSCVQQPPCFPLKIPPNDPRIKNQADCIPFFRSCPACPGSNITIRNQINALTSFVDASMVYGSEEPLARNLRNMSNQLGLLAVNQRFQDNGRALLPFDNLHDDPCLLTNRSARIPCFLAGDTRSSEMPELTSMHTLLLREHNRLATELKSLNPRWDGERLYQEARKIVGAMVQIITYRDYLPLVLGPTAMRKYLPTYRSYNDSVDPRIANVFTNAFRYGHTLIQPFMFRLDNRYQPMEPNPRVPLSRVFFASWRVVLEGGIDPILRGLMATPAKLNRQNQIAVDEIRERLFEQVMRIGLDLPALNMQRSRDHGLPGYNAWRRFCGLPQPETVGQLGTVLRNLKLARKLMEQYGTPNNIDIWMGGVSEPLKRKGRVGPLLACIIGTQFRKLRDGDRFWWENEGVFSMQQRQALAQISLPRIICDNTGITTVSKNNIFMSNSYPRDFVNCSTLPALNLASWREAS
testSummary: Inhibition of human MPO assessed as reduction in enzyme-mediated chlorination by measuring reduction in HOCl formation preincubated for 10 mins followed by H2O2/NaCl addition and measured at 30 secs time interval for 5 mins by APF dye based fluorescence assay
Scale for pIC50: -log10 of concentration given in mol/L; no unit attached.

Examples with answers:
smilesRepresentation	pIC50
O=c1[nH]c(=S)n(C[C@H]2CCCO2)c2nc[nH]c12	8.05
Nc1nc(OCc2cccc(OC(F)F)c2)c2nn[nH]c2n1	6.70
Nc1nc(OCc2ccc(C(F)(F)F)cc2)c2nn[nH]c2n1	6.85

Form field: reported pIC50 of COc1cccc(COc2nc(N)nc3[nH]nnc23)c1
6.31

What measured pIC50 goes with CCNc1nc(OCc2ccccc2)c2nn[nH]c2n1 ?
5.54

# lookup: pIC50 of Cc1ccc(COc2nc(N)nc3[nH]nnc23)cc1
6.29

Recorded pIC50 for Nc1nc(OCc2cccc(F)c2)c2nn[nH]c2n1 , please?
7.40

Quick one: pIC50 of Nc1nc(OCc2ccccc2Cl)c2nn[nH]c2n1 ?
6.74

Any idea what pIC50 was measured for Nc1nc(OCc2ccccc2F)c2nn[nH]c2n1 ?
7.11

Entry Nc1nc(OCc2ccc(F)cc2)c2nn[nH]c2n1 : reported pIC50 = ?
7.33

// query pIC50 value for entry Nc1nc(OCc2ccccc2)c2[nH]nnc2n1
6.96

What pIC50 value was documented for this compound, Cc1ccccc1COc1nc(N)nc2[nH]nnc12 ?
6.33

Which pIC50 value is on record for Nc1nc(OCc2cccc(Cl)c2)c2nn[nH]c2n1 ?
6.70

I am curious: what pIC50 value has been reported for Nc1nc(OCCc2ccccc2)c2nn[nH]c2n1 ?
6.20

Please look up its pIC50: Nc1ccc(Oc2cc(Cl)c(Cl)cc2Cl)cn1
6.44

GET /values?readout=pIC50&item= N[C@@H](Cc1c[nH]c2ccccc12)C(=O)OCc1ccccc1
6.70

----------
testTarget: Cytochrome P450 3A4 (Homo sapiens)
Sequence (P08684 whole entry): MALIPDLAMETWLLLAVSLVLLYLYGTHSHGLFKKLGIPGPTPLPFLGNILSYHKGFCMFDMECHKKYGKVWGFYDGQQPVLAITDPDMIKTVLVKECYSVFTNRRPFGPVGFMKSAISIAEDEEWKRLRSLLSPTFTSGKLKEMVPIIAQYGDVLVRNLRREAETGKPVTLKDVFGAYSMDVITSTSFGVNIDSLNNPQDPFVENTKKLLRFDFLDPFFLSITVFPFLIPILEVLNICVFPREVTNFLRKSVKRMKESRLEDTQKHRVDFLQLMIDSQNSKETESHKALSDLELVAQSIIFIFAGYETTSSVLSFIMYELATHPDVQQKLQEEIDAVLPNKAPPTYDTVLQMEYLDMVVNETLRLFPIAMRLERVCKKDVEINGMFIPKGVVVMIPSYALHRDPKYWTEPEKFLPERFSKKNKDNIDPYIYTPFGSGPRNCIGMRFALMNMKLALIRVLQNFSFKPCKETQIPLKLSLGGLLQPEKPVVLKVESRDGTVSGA
measurementType: pIC50
Lab note — pIC50 values are minus log10 of concentrations in M.

Field: pIC50 (Cytochrome P450 3A4 (Homo sapiens)). Entry: Nc1nc(OCc2ccccc2)c2[nH]nnc2n1
4.85

----------
testSummary: Protein binding in mouse plasma
Type: ADME, cell-free
conditionsUsed: read-out: PPB (converted)
measurementType: fraction unbound
Answer with a number only.

# fraction unbound lookup, item Nc1nc(OCc2ccccc2)c2[nH]nnc2n1
0.13

----------
testTarget: Myeloperoxidase (Homo sapiens, UniProt P05164)
testSummary: Inhibition of human MPO chlorination activity assessed as reduction in ApoA1-mediated [1,2 3H]-cholesterol efflux in PMA-stimulated human THP1 cells preincubated with enzyme and ApoA1 for 30 mins in presence of H2O2 followed by addition to THP1 cells and measured after overnight incubation
measurementType: pEC50
Scale: negative log10 of molar concentration, which is what pEC50 denotes.

Entry under review: Nc1nc(OCc2ccccc2)c2[nH]nnc2n1 . Reported pEC50?
5.00

----------
Measured IC50 values are reported for all entries that follow.
testTarget: Myeloperoxidase (Homo sapiens, UniProt P05164)
testSummary: Inhibition of human MPO assessed as reduction in enzyme-mediated chlorination by measuring reduction in HOCl formation in presence of H2O2/NaCl measured at 30 secs time interval for 5 mins by APF dye based fluorescence assay
Report as a plain number; the unit nM is understood.

smilesRepresentation	IC50 [nM]
O=c1[nH]c(=S)n(C[C@H]2CCCO2)c2nc[nH]c12	56
N[C@@H](Cc1c[nH]c2ccccc12)C(=O)OCc1ccccc1	110
Nc1nc(OCc2ccccc2)c2[nH]nnc2n1	84

From here, focus on the item given below.
Report IC50 for Nc1ccc(Oc2cc(Cl)c(Cl)cc2Cl)cn1 tested on Myeloperoxidase (Homo sapiens, UniProt P05164).
320
